testedTarget: Proto-oncogene tyrosine-protein kinase Src (Homo sapiens) (UniProt P12931)
Sequence (P12931 2-536 limits assumed): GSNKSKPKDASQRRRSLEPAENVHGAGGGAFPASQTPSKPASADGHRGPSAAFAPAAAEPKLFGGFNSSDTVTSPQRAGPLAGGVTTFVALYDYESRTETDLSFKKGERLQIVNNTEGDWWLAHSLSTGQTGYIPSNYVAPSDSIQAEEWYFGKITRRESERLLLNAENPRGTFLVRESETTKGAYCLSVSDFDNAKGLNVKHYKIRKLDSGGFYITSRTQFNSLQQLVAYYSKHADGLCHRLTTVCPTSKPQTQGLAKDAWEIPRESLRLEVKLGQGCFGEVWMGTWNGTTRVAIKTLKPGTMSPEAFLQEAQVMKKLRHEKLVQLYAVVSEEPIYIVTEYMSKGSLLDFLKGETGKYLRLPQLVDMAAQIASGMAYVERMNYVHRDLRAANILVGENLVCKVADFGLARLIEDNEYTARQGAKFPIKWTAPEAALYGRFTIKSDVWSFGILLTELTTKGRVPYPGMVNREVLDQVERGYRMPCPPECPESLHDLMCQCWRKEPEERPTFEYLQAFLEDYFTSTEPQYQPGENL
testDetails: Inhibition of c-Src tyrosine kinase at 5 uM
Rule: 1.0 for inhibition not less than 20%, 0.0 for anything less.

Answered cases to consult:
molecule=COc1cc(N)[nH]c2nc(-c3ccc(F)cc3)c(-c3ccncc3)c1-2 testedtarget="Proto-oncogene tyrosine-protein kinase Src (Homo sapiens) (UniProt P12931)" assignedlabel=1.0
molecule=Nc1cc(OCc2ccccc2)c2c(-c3ccncc3)c(-c3ccc(F)cc3)[nH]c2n1 testedtarget="Proto-oncogene tyrosine-protein kinase Src (Homo sapiens) (UniProt P12931)" assignedlabel=0.0
molecule=Nc1cc(OCCCc2ccccc2)c2c(-c3ccncc3)c(-c3ccc(F)cc3)[nH]c2n1 testedtarget="Proto-oncogene tyrosine-protein kinase Src (Homo sapiens) (UniProt P12931)" assignedlabel=0.0
molecule=COc1cccc(COc2cc(N)[nH]c3nc(-c4ccc(F)cc4)c(-c4ccncc4)c2-3)c1 testedtarget="Proto-oncogene tyrosine-protein kinase Src (Homo sapiens) (UniProt P12931)" assignedlabel=1.0
molecule="C[S+]([O-])c1ccc(-c2nc(-c3ccc(F)cc3)c(-c3ccncc3)[nH]2)cc1 (configuration not stated)" testedtarget="Proto-oncogene tyrosine-protein kinase Src (Homo sapiens) (UniProt P12931)" assignedlabel=1.0

Q: Is reported inhibition greater than or equal to 20% here: "Nc1ccc2c(-c3ccncc3)c(-c3ccc(F)cc3)[nH]c2n1"
Ans: 1.0

Q: Is reported inhibition greater than or equal to 20% here: "CCCCOc1cc(N)[nH]c2nc(-c3ccc(F)cc3)c(-c3ccncc3)c1-2"
Ans: 0.0
